Origin of the recorded values: patent US7923461B2

compound	melting point
Cl.O=C(NCCCc1ccncc1)N(CCC12CC3CC(CC(C3)C1)C2)CCC12CC3CC(CC(C3)C1)C2	120 to 122.5 °C
C#CCN(CCC12CC3CC(CC(C3)C1)C2)C(=O)NCCCc1ccncc1	152 to 154 °C
CCCCCN(CCC12CC3CC(CC(C3)C1)C2)C(=O)NCCCc1cccnc1	99.9 to 105.2 °C
CCCCCN(CCC12CC3CC(CC(C3)C1)C2)C(=O)NCC(Cc1ccccc1)Cc1ccncc1 (centres unmarked)	111 to 116 °C
O=C(NCCCc1ccncc1)N(CCC12CC3CC(CC(C3)C1)C2)CC1CCCC1	155 to 158 °C
CCCCCCCCCCN(CCC12CC3CC(CC(C3)C1)C2)C(=O)NCCCc1ccncc1	75 to 76 °C
CCCCCNC(=O)N(CCCc1ccncc1)CCC12CC3CC(CC(C3)C1)C2	47 to 50 °C
CCCCCN(CCC12CC3CC(CC(C3)C1)C2)C(=O)NC/C=C/c1ccncc1	90 to 118 °C

----------
Item-by-item account of melting point
quantity.measured: melting point

smiles.notation	quantity.measured	result
O=C(NCCCc1ccncc1)N(CCC12CC3CC(CC(C3)C1)C2)C1CC1	melting point	108 to 115.5 °C
C=CCN(CCC12CC3CC(CC(C3)C1)C2)C(=O)NCCCc1ccncc1	melting point	99 to 102 °C
CCCN(CC(=O)NC12CC3CC(CC(C3)C1)C2)C(=O)NCCCc1ccncc1	melting point	132 to 132.5 °C
CN(CCN(CCC12CC3CC(CC(C3)C1)C2)C(=O)NCCCc1ccncc1)C(=O)OC(C)(C)C(Cl)(Cl)Cl	melting point	47 to 52 °C
Cl.O=C(NCc1ccncc1)N(CCC1CCCCC1)Cc1cccs1	melting point	161.8 to 164.4 °C
CN(CCN(CCC12CC3CC(CC(C3)C1)C2)C(=O)NCCCc1ccncc1)C(=O)CC(C)(C)C	melting point	101.4 to 102.4 °C
CCCCCN(CCC12CC3CC(CC(C3)C1)C2)C(=O)NCc1ccncc1	melting point	96.5 to 108 °C
CN(C)CCN(CCC12CC3CC(CC(C3)C1)C2)C(=O)NCCCc1ccncc1	melting point	104 to 106.5 °C
O=C(NCCCc1ccncc1)N(CCC12CC3CC(CC(C3)C1)C2)Cc1cccs1	melting point	142.5 to 144.5 °C
CCCCN(CCCC12CC3CC(CC(C3)C1)C2)C(=O)NCCCc1ccncc1	melting point	79.8 to 80.4 °C
CC(C)N(CCC12CC3CC(CC(C3)C1)C2)C(=O)NCCCc1ccncc1	melting point	132 to 134 °C
O=C(NCCCc1ccncc1)N(CCC12CC3CC(CC(C3)C1)C2)Cc1ccco1	melting point	128 to 130 °C
O=C(NCCCc1ccncc1)N(CCC12CC3CC(CC(C3)C1)C2)Cc1ccccc1	melting point	130.5 to 135 °C
CCCCCN(CCC12CC3CC(CC(C3)C1)C2)C(=O)NCc1ccccn1	melting point	87.5 to 92 °C
O=C(NCCCc1ccncc1)N(CCC(F)(F)F)CCC12CC3CC(CC(C3)C1)C2	melting point	107.5 to 109 °C
O=C(NCCCc1ccncc1)N(C1CCCCC1)C1CCCCC1	melting point	143 to 145.5 °C
CCCCCN(CCC12CC3CC(CC(C3)C1)C2)C(=O)NCC(C)(C)Cc1ccncc1	melting point	82.5 to 84.9 °C

----------
Item-by-item account of melting point

compound	melting point
CC(CNC(=O)N(CCN(C)C(=O)OC(C)(C)C)CCC12CC3CC(CC(C3)C1)C2)Cc1ccncc1 (single isomer, unassigned; (+))	122.7 to 123.7 °C
CCCCCN(CCC12CC3CC(CC(C3)C1)C2)C(=O)NCCCc1ccnc2ccccc12	80.2 to 102 °C
CCCCCN(CCC12CC3CC(CC(C3)C1)C2)C(=O)NCCc1ccc(O)cc1	96.3 to 99.4 °C
C=C(C)CN(CCC12CC3CC(CC(C3)C1)C2)C(=O)NCCCc1ccncc1	108 to 109 °C
CCCCCN(CCC12CC3CC(CC(C3)C1)C2)C(=O)NCCC(C)c1ccncc1 (stereo not drawn)	93 to 98 °C
CCCCCN(CCC12CC3CC(CC(C3)C1)C2)C(=O)NCCc1cccnc1	112.5 to 114.5 °C
CCCN(CCCC12CC3CC(CC(C3)C1)C2)C(=O)NCc1ccncc1	96 to 98 °C
CCCCCN(CCC12CC3CC(CC(C3)C1)C2)C(=O)NC(C)CCc1ccncc1 (stereo not drawn)	128.5 to 129 °C
CCN(CCC12CC3CC(CC(C3)C1)C2)C(=O)NCCCc1ccncc1	106 to 115 °C
CCCCCN(CCc1ccccc1)C(=O)NCC(C)Cc1ccncc1 (stereo not drawn)	49 to 50 °C
COCCN(CCC12CC3CC(CC(C3)C1)C2)C(=O)NCCCc1ccncc1	101.5 to 104.5 °C
CCCN(CCC12CC3CC(CC(C3)C1)C2)C(=O)NCCCc1ccncc1	99 to 103 °C
CCCCCN(CCC12CC3CC(CC(C3)C1)C2)C(=O)NCCNc1ccncc1	133.9 to 134.5 °C
CN(CCC12CC3CC(CC(C3)C1)C2)C(=O)NCCCc1ccncc1	99 to 109 °C
CCCCCCN(CCC12CC3CC(CC(C3)C1)C2)C(=O)NCCCc1ccncc1	119.5 to 121.5 °C
CN(CCN(CCC12CC3CC(CC(C3)C1)C2)C(=O)NCCCc1ccncc1)S(C)(=O)=O	164.9 to 167.2 °C
CCCCN(CCC12CC3CC(CC(C3)C1)C2)C(=O)NCCCc1ccncc1	109.5 to 118 °C
CC(C)(C)OC(=O)NCCN(CCC12CC3CC(CC(C3)C1)C2)C(=O)NCCCc1ccncc1	158 to 160.5 °C
O=C(NCCCc1ccncc1)N(CCCc1ccccc1)C(c1ccccc1)c1ccccc1	123 to 124.8 °C
CCCCCN(CCC12CC3CC(CC(C3)C1)C2)C(=O)NCc1cccnc1	88.5 to 101.5 °C
O=C(NCCCc1ccncc1)N(CCCCC(F)(F)F)CCC12CC3CC(CC(C3)C1)C2	116.9 to 118.9 °C
OCCN(CCc1ccccc1)C(=S)NCCCc1ccncc1	105.6 to 107.1 °C
CCCCCN(CCC12CC3CC(CC(C3)C1)C2)C(=O)NCCCCc1ccncc1	74.1 to 78.1 °C
CCCCCN(CCC12CC3CC(CC(C3)C1)C2)C(=O)NCCCc1ccccn1	84.4 to 85.7 °C
O=C(NCCCc1ccncc1)N(CCC12CC3CC(CC(C3)C1)C2)C1CCCC1	135.5 to 137.5 °C
O=C(NCCCc1ccncc1)N1CCOCC1	94 to 98 °C
O=C(NCCCc1ccncc1)N(CCCC(F)(F)F)CCC12CC3CC(CC(C3)C1)C2	142.6 to 145 °C
O=C(NCCCc1ccncc1)N(CCC12CC3CC(CC(C3)C1)C2)CC1CC1	123 to 125 °C
CCCCCN(CCC12CC3CC(CC(C3)C1)C2)C(=O)NCCc1ccncc1	107 to 118 °C
CCCN(CCCCC12CC3CC(CC(C3)C1)C2)C(=O)NCCCc1ccncc1	110 to 110.5 °C
O=C(NCCCc1ccncc1)N(CCCC12CC3CC(CC(C3)C1)C2)CC(F)(F)F	88.9 to 90 °C
Cl.O=C1CCN(CCCc2ccncc2)C(=O)N1CCC12CC3CC(CC(C3)C1)C2	170 °C
O=C(NCCCc1ccncc1)N1CCc2ccccc2C1	76 to 79 °C

----------
Item-by-item account of melting point
quantity.measured: melting point

compound	quantity.measured	result
O=C(NCCCc1ccncc1)N(CCC12CC3CC(CC(C3)C1)C2)CC(F)(F)F [Compound No. 1-114]	melting point	106.2 to 107.3 °C
CCN(CCCC12CC3CC(CC(C3)C1)C2)C(=O)NCCCc1ccncc1 [Compound No. 1-130]	melting point	97.5 to 98.2 °C
CCN(CCCCC12CC3CC(CC(C3)C1)C2)C(=O)NCCCc1ccncc1 [Compound No. 1-124]	melting point	92.7 to 93.7 °C
CCCCCN(CCC12CC3CC(CC(C3)C1)C2)C(=O)NCC(Cc1ccncc1)Cc1ccncc1 [Compound No. 1-110]	melting point	124 to 136 °C
CC(C)CCN(CCC(C)C)C(=O)NCCCc1ccncc1.Cl	melting point	120.5 to 131.7 °C

----------
molecule	melting point
Cl.O=C1CCN(CCC2CCCCC2)C(=O)N1Cc1ccncc1	64 to 74.5 °C
Cl.Cl.NN(CCC12CC3CC(CC(C3)C1)C2)C(=O)NCCCc1ccncc1	~ 100 °C
O=C(NCCCc1ccncc1)N(CC=Cc1ccccc1)CCC12CC3CC(CC(C3)C1)C2	130 to 134.5 °C
CC=CCN(CCC12CC3CC(CC(C3)C1)C2)C(=O)NCCCc1ccncc1	89.5 to 93.5 °C
CC(CNC(=O)N(CCC(F)(F)F)CCC12CC3CC(CC(C3)C1)C2)Cc1ccncc1 (stereo not drawn)	81.1 to 84.1 °C
CCCCCN(CCC1CCCCC1)C(=O)NCc1ccncc1	64.7 to 65.8 °C
CCCN(CCCC12CC3CC(CC(C3)C1)C2)C(=O)NCCCc1ccncc1.O=P(O)(O)O	148 to 149 °C
CC(C)(C)OC(=O)CCN(CCC12CC3CC(CC(C3)C1)C2)C(=O)NCCCc1ccncc1	124.5 to 127 °C
CCCCCN(CCC12CC3CC(CC(C3)C1)C2)C(=O)NCCc1ccccn1	80 to 100 °C
